molecular target: human CD33 on primary human dendritic cells (human, UniProt P20138 18-364); experiment: cell-based or functional assay
Sequence (P20138 18-364): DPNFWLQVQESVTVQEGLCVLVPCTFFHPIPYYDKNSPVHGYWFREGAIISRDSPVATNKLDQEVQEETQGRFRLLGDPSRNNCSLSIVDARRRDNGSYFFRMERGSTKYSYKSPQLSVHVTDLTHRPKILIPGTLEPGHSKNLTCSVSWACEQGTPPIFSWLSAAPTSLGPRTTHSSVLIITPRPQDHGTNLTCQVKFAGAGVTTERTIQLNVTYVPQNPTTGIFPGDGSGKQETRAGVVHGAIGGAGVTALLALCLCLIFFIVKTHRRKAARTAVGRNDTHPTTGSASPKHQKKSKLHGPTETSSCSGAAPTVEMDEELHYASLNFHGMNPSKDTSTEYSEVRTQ
observed property: Receptor downregulation, (EC50) (pM)
Write the numeric value and append its unit.

Field: example entries. Status: answers known.
- binder: "anti-CD33 antibody 6C7H22 (antibody, V domains shown, VH/VL only) VH: EVQLVESGGGLVQPGGSLRLSCAGSGFTFSNYTMNWVRQAPGKGLEWVAEIRLKSNNYVTNYAASVKGRFTISRDDSKNSVYLQMNSLKTEDTGVYYCTRAGYYVPFAYWGQGTLVTVSS VL: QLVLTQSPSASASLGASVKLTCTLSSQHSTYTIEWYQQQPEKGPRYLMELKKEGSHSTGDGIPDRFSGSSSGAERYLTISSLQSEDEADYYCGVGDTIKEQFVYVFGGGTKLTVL"
  Receptor downregulation, (EC50) (pM): "1230 pM"
- binder: "anti-CD33 antibody 6C7H17 (antibody, V domains shown, VH/VL only) VH: EVQLVESGGGLVQPGGSLRLSCAGSGFTFSNYYMNWVRQAPGKGLEWVAEIRLKSNNYVTNYAASVKGRFTISRDDSKNSVYLQMNSLKTEDTGVYYCTRAGYYVPFAYWGQGTLVTVSS VL: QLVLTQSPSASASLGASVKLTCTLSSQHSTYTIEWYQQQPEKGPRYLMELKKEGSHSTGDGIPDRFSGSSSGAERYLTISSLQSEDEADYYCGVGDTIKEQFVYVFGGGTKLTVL"
  Receptor downregulation, (EC50) (pM): "51.9 pM"
- binder: "anti-CD33 antibody 6C7H18 (antibody, V domains shown, VH/VL only) VH: EVQLVESGGGLVQPGGSLRLSCAGSGFTFSNYHMNWVRQAPGKGLEWVAEIRLKSNNYVTNYAASVKGRFTISRDDSKNSVYLQMNSLKTEDTGVYYCTRAGYYVPFAYWGQGTLVTVSS VL: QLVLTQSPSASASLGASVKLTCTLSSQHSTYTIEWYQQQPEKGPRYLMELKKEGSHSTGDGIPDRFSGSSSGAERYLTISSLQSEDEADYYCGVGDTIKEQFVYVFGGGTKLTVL"
  Receptor downregulation, (EC50) (pM): "148 pM"
- binder: "anti-CD33 antibody 6C7H21 (antibody, V domains shown, VH/VL only) VH: EVQLVESGGGLVQPGGSLRLSCAGSGFTFSNYQMNWVRQAPGKGLEWVAEIRLKSNNYVTNYAASVKGRFTISRDDSKNSVYLQMNSLKTEDTGVYYCTRAGYYVPFAYWGQGTLVTVSS VL: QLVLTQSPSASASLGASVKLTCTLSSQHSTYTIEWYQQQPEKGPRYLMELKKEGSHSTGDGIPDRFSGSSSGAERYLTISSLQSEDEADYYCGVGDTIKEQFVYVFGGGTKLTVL"
  Receptor downregulation, (EC50) (pM): "34.7 pM"

-- ask Please supply the value of reported Receptor downregulation, (EC50) (pM) for the item anti-CD33 antibody 6C7H5 (antibody, V domains shown, Humanized 6C7; VH/VL only; also called parental humanized antibody) VH: EVQLVESGGGLVQPGGSLRLSCAGSGFTFSNYCMNWVRQAPGKGLEWVAEIRLKSNNYVTNYAASVKGRFTISRDDSKNSVYLQMNSLKTEDTGVYYCTRDGYYVPFAYWGQGTLVTVSS VL: QLVLTQSPSASASLGASVKLTCTLSSQHSTYTIEWYQQQPEKGPRYLMELKKDGSHSTGDGIPDRFSGSSSGAERYLTISSLQSEDEADYYCGVGDTIKEQFVYVFGGGTKLTVL
-- reply 42.4 pM
